- COND: in methyl acetate, 288.15 K

SMILES_REPR | solubility (mole fraction)
Cc1ccc2c(c1)C(=O)OC2=O | 0.236

###

- COND: in methyl acetate, 318.15 K

SMILES_REPR | solubility (mole fraction)
Cc1ccc2c(c1)C(=O)OC2=O | 0.449

###

- COND: in n-heptane, 278.15 K
QUANTITY_KIND: solubility (mole fraction)

SMILES_REPR | QUANTITY_KIND | VALUE_MEASURED
Cc1ccc2c(c1)C(=O)OC2=O | solubility (mole fraction) | 0.00107

###

- COND: in acetone, 313.15 K
QUANTITY_KIND: solubility (mole fraction)

SMILES_REPR | QUANTITY_KIND | VALUE_MEASURED
Cc1ccc2c(c1)C(=O)OC2=O | solubility (mole fraction) | 0.356

###

- COND: in cyclohexane, 303.15 K
QUANTITY_KIND: solubility (mole fraction)

SMILES_REPR | VALUE_MEASURED
Cc1ccc2c(c1)C(=O)OC2=O | 0.00396

###

- COND: in acetone, 293.15 K
QUANTITY_KIND: solubility (mole fraction)

SMILES_REPR | VALUE_MEASURED
Cc1ccc2c(c1)C(=O)OC2=O | 0.206

###

- COND: in n-butyl acetate, 303.15 K

SMILES_REPR | solubility (mole fraction)
Cc1ccc2c(c1)C(=O)OC2=O | 0.0586

###

- COND: in acetonitrile, 318.15 K

SMILES_REPR | solubility (mole fraction)
Cc1ccc2c(c1)C(=O)OC2=O | 0.343

###

- COND: in toluene, 318.15 K

SMILES_REPR | solubility (mole fraction)
Cc1ccc2c(c1)C(=O)OC2=O | 0.273

###

- COND: in acetonitrile, 283.15 K

SMILES_REPR | solubility (mole fraction)
Cc1ccc2c(c1)C(=O)OC2=O | 0.118

###

- COND: in toluene, 308.15 K

SMILES_REPR | solubility (mole fraction)
Cc1ccc2c(c1)C(=O)OC2=O | 0.188

###

- COND: in cyclohexane, 318.15 K

SMILES_REPR | solubility (mole fraction)
Cc1ccc2c(c1)C(=O)OC2=O | 0.00729

###

- COND: in acetone, 288.15 K

SMILES_REPR | solubility (mole fraction)
Cc1ccc2c(c1)C(=O)OC2=O | 0.176

###

- COND: in acetone, 283.15 K

SMILES_REPR | solubility (mole fraction)
Cc1ccc2c(c1)C(=O)OC2=O | 0.15

###

- COND: in tetrachloromethane, 318.15 K

SMILES_REPR | solubility (mole fraction)
Cc1ccc2c(c1)C(=O)OC2=O | 0.0321

###

- COND: in n-butyl acetate, 288.15 K
QUANTITY_KIND: solubility (mole fraction)

SMILES_REPR | VALUE_MEASURED
Cc1ccc2c(c1)C(=O)OC2=O | 0.0312

###

- COND: in toluene, 293.15 K

SMILES_REPR | solubility (mole fraction)
Cc1ccc2c(c1)C(=O)OC2=O | 0.11

###

- COND: in tetrachloromethane, 298.15 K

SMILES_REPR | solubility (mole fraction)
Cc1ccc2c(c1)C(=O)OC2=O | 0.0157

###

- COND: in methyl acetate, 293.15 K

SMILES_REPR | solubility (mole fraction)
Cc1ccc2c(c1)C(=O)OC2=O | 0.263
